- System: 485368-065-R4-J2-PDC spheroids with HUVEC/MSC, viability
- ASSAY_DETAILS: Anticancer human tumor 485368-065-R4-J2-PDC patient-derived pancreatic carcinoma cell line growth inhibition [CLK]; active = viability on the fitted dose curve at most 10% of control; inactive = the rest
- REPORTED_CONDITIONS: second compound 10 µM; first compound 1 µM
Outcome codes: true (active), false (inactive)

• O=c1[nH]cc(F)c(=O)[nH]1 + CN1CCN(c2cc(C(=O)Nc3cc4cc(-c5cnn(C)c5)ccc4cn3)ccn2)CC1 = true
• C=CC(=O)N1CCN(c2nc(=O)n(-c3c(C)ccnc3C(C)C)c3nc(-c4c(O)cccc4F)c(F)cc23)C(C)C1 (stereo not given) + CNC(=O)c1ccc(Nc2nc(OC3CCCC3)c3c(-c4ccc5nc(C)oc5c4)c[nH]c3n2)c(OC)c1 = false
• CC1(C)CCC(CN2CCN(c3ccc(C(=O)NS(=O)(=O)c4ccc(NCC5CCOCC5)c([N+](=O)[O-])c4)c(Oc4cnc5[nH]ccc5c4)c3)CC2)=C(c2ccc(Cl)cc2)C1 + CNC(=O)c1ccc(Nc2nc(OC3CCCC3)c3c(-c4ccc5nc(C)oc5c4)c[nH]c3n2)c(OC)c1 = false
• CC1(C)CCC(CN2CCN(c3ccc(C(=O)NS(=O)(=O)c4ccc(NCC5CCOCC5)c([N+](=O)[O-])c4)c(Oc4cnc5[nH]ccc5c4)c3)CC2)=C(c2ccc(Cl)cc2)C1 + CN1CCN(c2cc(C(=O)Nc3cc4cc(-c5cnn(C)c5)ccc4cn3)ccn2)CC1 = true
• CCc1c2c(nc3ccc(O)cc13)-c1cc3c(c(=O)n1C2)COC(=O)[C@]3(O)CC + CNC(=O)c1ccc(Nc2nc(OC3CCCC3)c3c(-c4ccc5nc(C)oc5c4)c[nH]c3n2)c(OC)c1 = false

---

- Test system: 485368-065-R4-J2-PDC spheroids with HUVEC/MSC, viability
- ASSAY_DETAILS: Anticancer human tumor 485368-065-R4-J2-PDC cell line growth inhibition [CLK];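 note: spheroids exposed to compounds for seven days; 100% = DMSO vehicle control wells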
- REPORTED_CONDITIONS: second compound 0.0316 µM; first compound 1 µM; hits give low values
ENDPOINT_LABEL: viability, T/C

• O=c1[nH]cc(F)c(=O)[nH]1 + CNC(=O)c1ccc(Nc2nc(OC3CCCC3)c3c(-c4ccc5nc(C)oc5c4)c[nH]c3n2)c(OC)c1 = 97.6%
• COC1C=CCC(C)C(C)S(=O)(=O)NC(=O)c2ccc3c(c2)N(CC2CCC21)CC1(CCCc2cc(Cl)ccc21)CO3 (stereo not given) + CN1CCN(c2cc(C(=O)Nc3cc4cc(-c5cnn(C)c5)ccc4cn3)ccn2)CC1 = 113%
• COC1C=CCC(C)C(C)S(=O)(=O)NC(=O)c2ccc3c(c2)N(CC2CCC21)CC1(CCCc2cc(Cl)ccc21)CO3 (stereo not given) + CNC(=O)c1ccc(Nc2nc(OC3CCCC3)c3c(-c4ccc5nc(C)oc5c4)c[nH]c3n2)c(OC)c1 = 105%
• Nc1ccccc1NC(=O)c1ccc(CNC(=O)OCc2cccnc2)cc1 + CN1CCN(c2cc(C(=O)Nc3cc4cc(-c5cnn(C)c5)ccc4cn3)ccn2)CC1 = 97.7%
• Nc1ccn(C2OC(CO)C(O)C2(F)F)c(=O)n1 (stereo not given) + CNC(=O)c1ccc(Nc2nc(OC3CCCC3)c3c(-c4ccc5nc(C)oc5c4)c[nH]c3n2)c(OC)c1 = 35.2%
• CCN1CCN(Cc2ccc(Nc3ncc(F)c(-c4cc(F)c5nc(C)n(C(C)C)c5c4)n3)nc2)CC1 + CNC(=O)c1ccc(Nc2nc(OC3CCCC3)c3c(-c4ccc5nc(C)oc5c4)c[nH]c3n2)c(OC)c1 = 117%
• CC(Nc1ccc2c(c1)OCCn1cc(N3C(=O)OCC3C(F)F)nc1-2)C(N)=O (stereo not given) + CN1CCN(c2cc(C(=O)Nc3cc4cc(-c5cnn(C)c5)ccc4cn3)ccn2)CC1 = 83.3%
• C#Cc1c(F)ccc2cc(O)cc(-c3ncc4c(N5CC6CCC(C5)N6)nc(OCC56CCCN5CC(F)C6)nc4c3F)c12 (stereo not given) + CNC(=O)c1ccc(Nc2nc(OC3CCCC3)c3c(-c4ccc5nc(C)oc5c4)c[nH]c3n2)c(OC)c1 = 102%
• CCc1c2c(nc3ccc(O)cc13)-c1cc3c(c(=O)n1C2)COC(=O)[C@]3(O)CC + CN1CCN(c2cc(C(=O)Nc3cc4cc(-c5cnn(C)c5)ccc4cn3)ccn2)CC1 = 11.7%
• COc1c(OCCCN2CCOCC2)ccc2c3n(c(=NC(=O)c4cnc(N)nc4)nc12)CCN3 + CN1CCN(c2cc(C(=O)Nc3cc4cc(-c5cnn(C)c5)ccc4cn3)ccn2)CC1 = 37.8%
• CC(=O)O[C@H]1C(=O)[C@@]2(C)[C@H]([C@H](OC(=O)c3ccccc3)[C@]3(O)C[C@H](OC(=O)[C@H](O)[C@@H](NC(=O)c4ccccc4)c4ccccc4)C(C)=C1C3(C)C)[C@]1(OC(C)=O)CO[C@@H]1C[C@@H]2O + CN1CCN(c2cc(C(=O)Nc3cc4cc(-c5cnn(C)c5)ccc4cn3)ccn2)CC1 = 46.2%
• CCc1c2c(nc3ccc(O)cc13)-c1cc3c(c(=O)n1C2)COC(=O)[C@]3(O)CC + CNC(=O)c1ccc(Nc2nc(OC3CCCC3)c3c(-c4ccc5nc(C)oc5c4)c[nH]c3n2)c(OC)c1 = 16%
• CCCS(=O)(=O)Nc1ccc(F)c(C(=O)c2c[nH]c3ncc(-c4ccc(Cl)cc4)cc23)c1F + CNC(=O)c1ccc(Nc2nc(OC3CCCC3)c3c(-c4ccc5nc(C)oc5c4)c[nH]c3n2)c(OC)c1 = 97.5%
• CC1COCCN1c1cc(C2(S(C)(=N)=O)CC2)nc(-c2ccnc3[nH]ccc23)n1 (stereo not given) + CN1CCN(c2cc(C(=O)Nc3cc4cc(-c5cnn(C)c5)ccc4cn3)ccn2)CC1 = 119%
• COc1cccc2c1C(=O)c1c(O)c3c(c(O)c1C2=O)CC(O)(C(=O)CO)CC3OC1CC(N)C(O)C(C)O1 (stereo not given) + CN1CCN(c2cc(C(=O)Nc3cc4cc(-c5cnn(C)c5)ccc4cn3)ccn2)CC1 = 22.8%
• COc1c(OCCCN2CCOCC2)ccc2c3n(c(=NC(=O)c4cnc(N)nc4)nc12)CCN3 + CNC(=O)c1ccc(Nc2nc(OC3CCCC3)c3c(-c4ccc5nc(C)oc5c4)c[nH]c3n2)c(OC)c1 = 40.5%
• C#Cc1c(F)ccc2cc(O)cc(-c3ncc4c(N5CC6CCC(C5)N6)nc(OCC56CCCN5CC(F)C6)nc4c3F)c12 (stereo not given) + CN1CCN(c2cc(C(=O)Nc3cc4cc(-c5cnn(C)c5)ccc4cn3)ccn2)CC1 = 116%
• COc1ccc([C@@H](O)c2cc(-c3ncnc4cc(N5CCOCC5)ccc34)c(F)cc2Cl)nn1 + CN1CCN(c2cc(C(=O)Nc3cc4cc(-c5cnn(C)c5)ccc4cn3)ccn2)CC1 = 119%
• CCN1CCN(Cc2ccc(Nc3ncc(F)c(-c4cc(F)c5nc(C)n(C(C)C)c5c4)n3)nc2)CC1 + CN1CCN(c2cc(C(=O)Nc3cc4cc(-c5cnn(C)c5)ccc4cn3)ccn2)CC1 = 120%
• CC1(C)CCC(CN2CCN(c3ccc(C(=O)NS(=O)(=O)c4ccc(NCC5CCOCC5)c([N+](=O)[O-])c4)c(Oc4cnc5[nH]ccc5c4)c3)CC2)=C(c2ccc(Cl)cc2)C1 + CNC(=O)c1ccc(Nc2nc(OC3CCCC3)c3c(-c4ccc5nc(C)oc5c4)c[nH]c3n2)c(OC)c1 = 102%

---

- Tested on: 485368-065-R4-J2-PDC spheroids with HUVEC/MSC, viability
- ASSAY_DETAILS: Anticancer human tumor 485368-065-R4-J2-PDC cell line growth inhibition [CLK]; active means viability on the fitted dose curve at most 10% of control; inactive means the rest;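 note: spheroids exposed to compounds for seven days; 100% = DMSO vehicle control wells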
- REPORTED_CONDITIONS: second compound 1 µM; first compound 1 µM
Outcome codes: yes (active), no (inactive)

* CC(CO)NC(=O)c1cc(-c2ccc(Cl)cc2)nn(-c2cnn(C)c2)c1=O (centres undefined) + CNC(=O)c1ccc(Nc2nc(OC3CCCC3)c3c(-c4ccc5nc(C)oc5c4)c[nH]c3n2)c(OC)c1 | no
* CC(=O)O[C@H]1C(=O)[C@@]2(C)[C@H]([C@H](OC(=O)c3ccccc3)[C@]3(O)C[C@H](OC(=O)[C@H](O)[C@@H](NC(=O)c4ccccc4)c4ccccc4)C(C)=C1C3(C)C)[C@]1(OC(C)=O)CO[C@@H]1C[C@@H]2O + CN1CCN(c2cc(C(=O)Nc3cc4cc(-c5cnn(C)c5)ccc4cn3)ccn2)CC1 | yes
* C#Cc1c(F)ccc2cc(O)cc(-c3ncc4c(N5CC6CCC(C5)N6)nc(OCC56CCCN5CC(F)C6)nc4c3F)c12 (centres undefined) + CNC(=O)c1ccc(Nc2nc(OC3CCCC3)c3c(-c4ccc5nc(C)oc5c4)c[nH]c3n2)c(OC)c1 | no
* CCc1c2c(nc3ccc(O)cc13)-c1cc3c(c(=O)n1C2)COC(=O)[C@]3(O)CC + CNC(=O)c1ccc(Nc2nc(OC3CCCC3)c3c(-c4ccc5nc(C)oc5c4)c[nH]c3n2)c(OC)c1 | no
* C#Cc1c(F)ccc2cc(O)cc(-c3ncc4c(N5CC6CCC(C5)N6)nc(OCC56CCCN5CC(F)C6)nc4c3F)c12 (centres undefined) + CN1CCN(c2cc(C(=O)Nc3cc4cc(-c5cnn(C)c5)ccc4cn3)ccn2)CC1 | yes
* CC(Nc1ccc2c(c1)OCCn1cc(N3C(=O)OCC3C(F)F)nc1-2)C(N)=O (centres undefined) + CNC(=O)c1ccc(Nc2nc(OC3CCCC3)c3c(-c4ccc5nc(C)oc5c4)c[nH]c3n2)c(OC)c1 | no
* O=C(c1cc(Cc2n[nH]c(=O)c3ccccc23)ccc1F)N1CCN(C(=O)C2CC2)CC1 + CN1CCN(c2cc(C(=O)Nc3cc4cc(-c5cnn(C)c5)ccc4cn3)ccn2)CC1 | yes
* COc1cccc2c1C(=O)c1c(O)c3c(c(O)c1C2=O)CC(O)(C(=O)CO)CC3OC1CC(N)C(O)C(C)O1 (centres undefined) + CNC(=O)c1ccc(Nc2nc(OC3CCCC3)c3c(-c4ccc5nc(C)oc5c4)c[nH]c3n2)c(OC)c1 | no
* CC(=O)O[C@H]1C(=O)[C@@]2(C)[C@H]([C@H](OC(=O)c3ccccc3)[C@]3(O)C[C@H](OC(=O)[C@H](O)[C@@H](NC(=O)c4ccccc4)c4ccccc4)C(C)=C1C3(C)C)[C@]1(OC(C)=O)CO[C@@H]1C[C@@H]2O + CNC(=O)c1ccc(Nc2nc(OC3CCCC3)c3c(-c4ccc5nc(C)oc5c4)c[nH]c3n2)c(OC)c1 | no
* Nc1ccn(C2OC(CO)C(O)C2(F)F)c(=O)n1 (centres undefined) + CN1CCN(c2cc(C(=O)Nc3cc4cc(-c5cnn(C)c5)ccc4cn3)ccn2)CC1 | yes
* COC1C=CCC(C)C(C)S(=O)(=O)NC(=O)c2ccc3c(c2)N(CC2CCC21)CC1(CCCc2cc(Cl)ccc21)CO3 (centres undefined) + CNC(=O)c1ccc(Nc2nc(OC3CCCC3)c3c(-c4ccc5nc(C)oc5c4)c[nH]c3n2)c(OC)c1 | no
* CCN1CCN(Cc2ccc(Nc3ncc(F)c(-c4cc(F)c5nc(C)n(C(C)C)c5c4)n3)nc2)CC1 + CNC(=O)c1ccc(Nc2nc(OC3CCCC3)c3c(-c4ccc5nc(C)oc5c4)c[nH]c3n2)c(OC)c1 | no
* O=c1[nH]cc(F)c(=O)[nH]1 + CNC(=O)c1ccc(Nc2nc(OC3CCCC3)c3c(-c4ccc5nc(C)oc5c4)c[nH]c3n2)c(OC)c1 | no
* COc1cccc2c1C(=O)c1c(O)c3c(c(O)c1C2=O)CC(O)(C(=O)CO)CC3OC1CC(N)C(O)C(C)O1 (centres undefined) + CN1CCN(c2cc(C(=O)Nc3cc4cc(-c5cnn(C)c5)ccc4cn3)ccn2)CC1 | yes
* O=C(c1cc(Cc2n[nH]c(=O)c3ccccc23)ccc1F)N1CCN(C(=O)C2CC2)CC1 + CNC(=O)c1ccc(Nc2nc(OC3CCCC3)c3c(-c4ccc5nc(C)oc5c4)c[nH]c3n2)c(OC)c1 | no
* CCN1CCN(Cc2ccc(Nc3ncc(F)c(-c4cc(F)c5nc(C)n(C(C)C)c5c4)n3)nc2)CC1 + CN1CCN(c2cc(C(=O)Nc3cc4cc(-c5cnn(C)c5)ccc4cn3)ccn2)CC1 | yes
* CCCS(=O)(=O)Nc1ccc(F)c(C(=O)c2c[nH]c3ncc(-c4ccc(Cl)cc4)cc23)c1F + CN1CCN(c2cc(C(=O)Nc3cc4cc(-c5cnn(C)c5)ccc4cn3)ccn2)CC1 | yes
* Nc1ccccc1NC(=O)c1ccc(CNC(=O)OCc2cccnc2)cc1 + CNC(=O)c1ccc(Nc2nc(OC3CCCC3)c3c(-c4ccc5nc(C)oc5c4)c[nH]c3n2)c(OC)c1 | no
* COc1ccc([C@@H](O)c2cc(-c3ncnc4cc(N5CCOCC5)ccc34)c(F)cc2Cl)nn1 + CN1CCN(c2cc(C(=O)Nc3cc4cc(-c5cnn(C)c5)ccc4cn3)ccn2)CC1 | yes
